tested on: P388 leukemia ip, CD2F1 mice, survival T/C; assay: NCI In Vivo Anticancer Drug Screen. Data for tumor model P388 Leukemia (intraperitoneal) in CD2F1 (CDF1) mice; conditions: endpoint: median survival time; dose: 2.5 mg/kg/injection; schedule: Q01DX009 (ip); vehicle: other; higher = longer survival
Inconclusive results and toxic doses are left out.
quantity kind: T/C

compound | readout value
COc1cc2c(c3c1C(=O)c1c(cc4c(c1O)C(OC)CC(C)(O)C4)C3=O)OC1OC2(C)C(O)C(N(C)C)C1O (centres undefined) | 98 % of control
CC1OC2CC(O)C1(O)C1=C2C(O)=C(C(N)=O)C(=N)C1=O (centres undefined) | 113 % of control

Problem: Which measured T/C value corresponds to COc1ccc2c(NCCCCCCCCNc3c4ccc(OC)cc4nc4c(OC)cccc34)c3cccc(OC)c3nc2c1 ?
Result: 120 % of control

Problem: Which measured T/C value corresponds to CCCCOc1cccc2c(NCCNc3c4ccccc4nc4c(OCCCC)cccc34)c3ccccc3nc12 ?
Result: 101 % of control

====

test system: P388 leukemia ip, CD2F1 mice, survival T/C; assay: NCI In Vivo Anticancer Drug Screen. Data for tumor model P388 Leukemia (intraperitoneal) in CD2F1 (CDF1) mice; conditions: endpoint: median survival time; dose: 12.5 mg/kg/injection; schedule: Q04DX003 (ip); vehicle: water; higher = longer survival
Toxic doses and inconclusive results are not listed.
quantity kind: T/C

Some compounds with recorded T/C:
compound | readout value
COC1CC(N)C(OS(C)(=O)=O)C(C)O1 (centres undefined) | 99 % of control
COc1c2c(c(O)c3c1C(=O)c1cccc(O)c1C3=O)C(OC1CC(N)C(O)C(C)O1)CC(O)(C(C)=O)C2 (centres undefined) | 118 % of control
COc1ccc2c(N)c3c4ccccc4cc[n+]3cc2c1OC | 112 % of control

API: the following record is the query input.
Problem: Which measured T/C value corresponds to Cc1c(O)c2c(c(O)c1Cc1ccc(CN)cc1)C(=O)c1ccccc1C2=O ?
Result: 98 % of control

====

Below, each entry is listed alongside its reported T/C.
System: P388 leukemia ip, CD2F1 mice, survival T/C
Experiment: NCI In Vivo Anticancer Drug Screen. Data for tumor model P388 Leukemia (intraperitoneal) in CD2F1 (CDF1) mice
Details: endpoint: median survival time; dose: 50.0 mg/kg/injection; schedule: Q01DX001 (ip); vehicle: saline with Tween-80; higher = longer survival
Description: The antitumor activity of compounds was measured in mice bearing transplantable tumors. Survival or tumor size were measured and the results are expressed as the measurement made in the treated group (T) divided by the measurement made in the vehicle treated control group (C). The tumor model used in this assay is P388 Leukemia (intraperitoneal) in CD2F1 (CDF1) mice
Inconclusive results and toxic doses are left out.

chemical smiles | readout value
Cc1cccc(-n2c(N)cc(=O)[nH]c2=S)n1 | 100 % of control
Clc1cc2[nH]ccc2c(Cl)n1 | 90 % of control
C=C1C(C#N)=C(SC)SC(=S)N1CC | 95 % of control
CCOC(=O)C#Cc1cccc(C#CC(=O)OCC)c1 | 98 % of control

Problem: Which measured T/C value corresponds to CCOC(=O)c1c[nH]c2c(=O)c3cc(C)ccc3sc2c1=O ?
Result: 95 % of control

====

Below, each entry is listed alongside its reported T/C.
system: P388 leukemia ip, CD2F1 mice, survival T/C; assay: NCI In Vivo Anticancer Drug Screen. Data for tumor model P388 Leukemia (intraperitoneal) in CD2F1 (CDF1) mice; details: endpoint: median survival time; dose: 50.0 mg/kg/injection; schedule: Q01DX009 (ip); vehicle: saline with Tween-80; higher = longer survival
Toxic doses and inconclusive results are not listed.

molecule | T/C
COc1cc(C(C)(C)C)cc(OC)c1Br | 101 % of control
CC(=O)NC(C(=O)O)C(C)(C)SN=O (stereo not drawn) | 93 % of control
CC1Cn2c(c(-c3ccccc3)c(=O)[nH]c2=S)O1 (stereo not drawn) | 100 % of control
COc1ccc(/C(C#N)=C2\OC(=O)c3ccccc32)cc1OC | 90 % of control
COc1ccc(-c2cc(=O)c3c(O)cc(O)cc3o2)cc1 | 90 % of control
Cn1c(O)c(N=O)c(=O)[nH]c1=O | 95 % of control
CCN(CC)CCCNc1c(O)cc(C)c2sc3ccccc3c(=O)c12 | 94 % of control

API: the following record is the query input.
Problem: Which measured T/C value corresponds to Fc1ccc(N(c2nc(Cl)nc(Cl)n2)c2nc(Cl)nc(Cl)n2)cc1 ?
Result: 113 % of control

====

Below, each entry is listed alongside its reported T/C.
tested on: P388 leukemia ip, CD2F1 mice, survival T/C; experiment: NCI In Vivo Anticancer Drug Screen. Data for tumor model P388 Leukemia (intraperitoneal) in CD2F1 (CDF1) mice; conditions: endpoint: median survival time; dose: 120.0 mg/kg/injection; schedule: Q01DX005 (ip); vehicle: saline with Tween-80; higher = longer survival
Toxic doses and inconclusive results are not listed.

Some compounds with recorded T/C:
compound | readout value
O=[n+]1c2c(n([O-])c3cc(Cl)c(Cl)cc31)CCC2 | 95 % of control
CCOCCOCCOC(C)Oc1ccc(Br)cc1 (stereo not given) | 100 % of control
CC(C)(C)NC(=O)NCCCCCCNC(=O)NC(C)(C)C | 96 % of control
CSc1nc(NC2OCC(OC(C)=O)C(OC(C)=O)C2OC(C)=O)c(N=CC=Nc2c(NC3OCC(OC(C)=O)C(OC(C)=O)C3OC(C)=O)nc(SC)n(C)c2=O)c(=O)n1C (stereo not given) | 91 % of control
CCN(Cc1cccc(S(=O)(=O)O)c1)c1ccc(C(=C2C=CC(=[N+](CC)Cc3cccc(S(=O)(=O)O)c3)C=C2)c2ccc(O)cc2S(=O)(=O)O)cc1 | 98 % of control
Nc1nnc(Cc2cccc3ccccc23)o1 | 106 % of control
CCc1cccc(CC)c1NC1=C(Cl)C(=O)c2ccccc2C1=O | 94 % of control
O=C1CCC(N2C(=O)C3C4CCC(O4)C3C2=O)C(=O)N1 (stereo not given) | 94 % of control
N#Cc1c2c(n3c1[nH]c(=O)c1ccccc13)CCCC2 | 100 % of control

API: the following record is the query input.
Problem: Which measured T/C value corresponds to Oc1cc2c(cc1C(c1ccc(F)cc1)N1CCOCC1)OCO2 (stereo not given) ?
Result: 102 % of control

====

tested on: P388 leukemia ip, CD2F1 mice, survival T/C; experiment: NCI In Vivo Anticancer Drug Screen. Data for tumor model P388 Leukemia (intraperitoneal) in CD2F1 (CDF1) mice; settings: endpoint: median survival time; dose: 400.0 mg/kg/injection; schedule: Q04DX002 (ip); vehicle: saline with Tween-80; higher = longer survival
Toxic doses and inconclusive results are not listed.
quantity kind: T/C

Some compounds with recorded T/C:
compound | quantity kind | readout value
FC(F)(F)c1ccccc1N=Nc1c(-c2ccccc2)nn(C(=S)S)c1-c1ccccc1 | T/C | 100 % of control
Cc1ccc(S(=O)(=O)S(=O)(=O)c2ccc(C)cc2)cc1 | T/C | 104 % of control
COC(=O)C1C/C=C\C=C/N(C)C1=O (stereo not given) | T/C | 101 % of control
CSCCCNC(=O)c1csc(-c2csc(CCNC(C)=O)n2)n1 | T/C | 97 % of control
Cc1c2c(cc3c4ccccc4n(C)c13)C(=O)c1ccccc1C2=O | T/C | 92 % of control
Fc1cccc(-c2nn[nH]n2)c1 | T/C | 116 % of control
O=C1CSC(c2ccco2)N1CCN1C(=O)CSC1c1ccco1 (stereo not given) | T/C | 91 % of control
c1cnc2c3cnc4sccc4c3nn2c1 | T/C | 93 % of control
OCCn1nc2c(c1-c1ccncc1)CCCc1ccccc1-2 | T/C | 94 % of control

API: the following record is the query input.
Problem: Which measured T/C value corresponds to O=c1c(N=Nc2ccccc2Cl)c(O)n(-c2ccc(Br)cc2)c(=S)n1-c1ccccc1 ?
Result: 90 % of control

====

Below, each entry is listed alongside its reported T/C.
system: P388 leukemia ip, CD2F1 mice, survival T/C; experiment: NCI In Vivo Anticancer Drug Screen. Data for tumor model P388 Leukemia (intraperitoneal) in CD2F1 (CDF1) mice; settings: endpoint: median survival time; dose: 100.0 mg/kg/injection; schedule: Q01DX005 (ip); vehicle: saline with Tween-80; higher = longer survival
Toxic doses and inconclusive results are not listed. Peptide text beside a SMILES is read from it. * marks the point of attachment. Cbz = O=C(OCc1ccccc1)*

molecule | T/C
CC(C)CC(NC(=O)C(Cc1ccccc1)NC(=O)OCc1ccccc1)C(=O)O (stereo not drawn) (Cbz-Phe-Leu-OH; configuration not given here) | 105 % of control
CC(=O)N1N=C(c2ccc(OCC(O)CN3CCN(CC(O)COc4ccc(C5=NN(C(C)=O)C(c6ccccc6)C5)cc4)CC3)cc2)CC1c1ccccc1 (stereo not drawn) | 86 % of control

Problem: Which measured T/C value corresponds to C[C@@H]1C[C@@H]2c3cccc4c3c(cn4C)C[C@H]2N(C)C1 ?
Result: 107 % of control

Problem: Which measured T/C value corresponds to Cc1nc2ccccc2n(CC2CCCN3CCCC[C@H]23)c1=O (stereo partly drawn) ?
Result: 101 % of control

Problem: Which measured T/C value corresponds to Nc1cc(-c2ccccc2)nn1-c1nnc(-c2ccccc2)c(-c2ccccc2)n1 ?
Result: 100 % of control

Problem: Which measured T/C value corresponds to O=C1c2ccccc2C(=O)c2c(O)c(CBr)c(CBr)c(O)c21 ?
Result: 104 % of control

Problem: Which measured T/C value corresponds to O=C1CN(c2cccc(Cl)c2)C(=O)CN1/N=C/c1ccco1 ?
Result: 107 % of control

Problem: Which measured T/C value corresponds to O=C(O)CSC(c1ccccc1)(c1ccc(-c2ccccc2)cc1)c1cccc2ccccc12 (stereo not drawn) ?
Result: 109 % of control

Problem: Which measured T/C value corresponds to C(=N[C@H]1CCCC[C@H]1N=Cc1ccccn1)c1ccccn1 ?
Result: 90 % of control
